Biological target: N-cadherin expressed on transfected 3T3 cells
Assay: cell-based or functional assay
readoutKind: percent inhibition of neurite outgrowth, peptide at 100 µg/ml (%)
Number in %, nothing else.

>  <binder>
Ac-WLKIDPVNGQI-NH2 [N-Ac-WLKIDPVNGQI-NH2]

>  <outputUnit>
%

>  <observedResult>
66.9

$$$$

# input binder: H-LKIDPVNGQI-OH [H-LKIDPVNGQI-OH] ; wanted: its percent inhibition of neurite outgrowth, peptide at 100 µg/ml
46

Name the recorded percent inhibition of neurite outgrowth, peptide at 100 µg/ml for Ac-IDPVNGQ-NH2 [N-Ac-IDPVNGQ-NH2] .
56.4

Which percent inhibition of neurite outgrowth, peptide at 100 µg/ml is reported for this binder? Ac-WLKADPVNGQI-NH2 [N-Ac-WLKADPVNGQI-NH2]
22.2
